Target: Retinoic acid receptor RXR-alpha (Rattus norvegicus)
Sequence (Q05343 whole entry): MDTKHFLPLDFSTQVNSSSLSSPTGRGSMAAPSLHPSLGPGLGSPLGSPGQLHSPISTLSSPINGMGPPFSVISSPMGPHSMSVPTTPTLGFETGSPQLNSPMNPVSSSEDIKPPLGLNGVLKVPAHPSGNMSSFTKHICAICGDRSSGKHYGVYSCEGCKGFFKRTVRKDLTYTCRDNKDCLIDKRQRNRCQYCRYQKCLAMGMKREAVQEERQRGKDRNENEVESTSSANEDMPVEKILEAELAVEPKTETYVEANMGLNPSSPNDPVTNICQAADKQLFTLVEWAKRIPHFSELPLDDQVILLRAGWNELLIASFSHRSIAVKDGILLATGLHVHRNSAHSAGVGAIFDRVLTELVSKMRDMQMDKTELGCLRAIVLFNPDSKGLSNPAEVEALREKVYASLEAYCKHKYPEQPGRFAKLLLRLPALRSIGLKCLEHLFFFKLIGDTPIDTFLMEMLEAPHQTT
Test: In vitro evaluation against RXR-alpha in CV-1 cells by cotransfection assay was determined
Format: cell-based
pIC50: −log10 of the molar value.

- TEST_SMILES: "CC(/C=C/c1ccoc1-c1cc(C(C)C)cc(C(C)C)c1OCCCF)=C\\C(=O)O"
  pIC50: 7.94
- TEST_SMILES: "CC(/C=C/C1=C(c2cc(C(C)C)cc(C(C)C)c2OCCCF)CCC1)=C\\C(=O)O"
  pIC50: 8.48
- TEST_SMILES: "CC(/C=C/c1sccc1-c1cc(C(C)C)cc(C(C)C)c1OCCCF)=C\\C(=O)O"
  pIC50: 8.17
- TEST_SMILES: "CC(/C=C/c1sccc1-c1cc(C(C)C)cc(C(C)C)c1OCC(F)(F)F)=C\\C(=O)O"
  pIC50: 7.98
- TEST_SMILES: "CCc1cc(-c2ccsc2/C=C/C(C)=C/C(=O)O)c(OCCCF)c(C(C)(C)C)c1"
  pIC50: 7.99
- TEST_SMILES: "CC(/C=C/C1=C(c2cc(C(C)C)cc(C(C)C)c2OCC(F)F)CCC1)=C\\C(=O)O"
  pIC50: 8.29
- TEST_SMILES: "CC(/C=C/c1ccncc1-c1cc(C(C)C)cc(C(C)C)c1OCC(F)(F)F)=C\\C(=O)O"
  pIC50: 6.57
- TEST_SMILES: "CC(/C=C/c1ccccc1-c1cc(C(C)(C)C)cc(C(C)(C)C)c1OCCCF)=C\\C(=O)O"
  pIC50: 7.33
- TEST_SMILES: "CC(/C=C/c1ccccc1-c1cc(C(C)C)cc(C(C)C)c1OCC(F)F)=C\\C(=O)O"
  pIC50: 7.10

* * *

// reported Ki for each item listed
Target chain: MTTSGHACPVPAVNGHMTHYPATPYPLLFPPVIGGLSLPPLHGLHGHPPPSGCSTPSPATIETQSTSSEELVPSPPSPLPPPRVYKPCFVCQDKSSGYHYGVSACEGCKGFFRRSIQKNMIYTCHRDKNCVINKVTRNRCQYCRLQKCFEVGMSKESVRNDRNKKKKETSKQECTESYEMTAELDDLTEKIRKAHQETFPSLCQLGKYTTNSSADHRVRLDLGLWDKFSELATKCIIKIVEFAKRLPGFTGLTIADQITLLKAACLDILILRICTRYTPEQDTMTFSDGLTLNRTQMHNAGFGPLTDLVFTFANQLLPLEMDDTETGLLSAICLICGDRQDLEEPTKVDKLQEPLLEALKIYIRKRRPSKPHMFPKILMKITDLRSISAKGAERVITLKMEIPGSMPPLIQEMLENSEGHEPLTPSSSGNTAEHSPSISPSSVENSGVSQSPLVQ

- TEST_SMILES: "C/C(=C/C=C/C(C)=C/C(=O)O)c1cc(C(C)(C)C)cc(C(C)(C)C)c1OCC(F)F"
  Ki: "4.69 µM"
- TEST_SMILES: "CCc1cc(-c2ccsc2/C=C/C(C)=C/C(=O)O)c(OCC(F)F)c(C(C)(C)C)c1"
  Ki: "8 µM"
- TEST_SMILES: "CC(/C=C/c1ccoc1-c1cc(C(C)C)cc(C(C)C)c1OCCCF)=C\\C(=O)O"
  Ki: "> 10 µM"
- TEST_SMILES: "CC(/C=C/c1ccccc1-c1cc(C(C)C)cc(C(C)C)c1OCCCF)=C\\C(=O)O"
  Ki: "> 10 µM"
- TEST_SMILES: "CC(/C=C/c1sccc1-c1cc(C(C)(C)C)cc(C(C)(C)C)c1OCCC(F)F)=C\\C(=O)O"
  Ki: "> 10 µM"
- TEST_SMILES: "CC(/C=C/C1=C(c2cc(C(C)C)cc(C(C)C)c2OCC(F)F)CCC1)=C\\C(=O)O"
  Ki: "> 10 µM"

* * *

The reader will find reported Synergy values listed item by item below.
Biological target: Retinoic acid receptor RXR-alpha (Rattus norvegicus) (UniProt Q05343)
Sequence (whole entry): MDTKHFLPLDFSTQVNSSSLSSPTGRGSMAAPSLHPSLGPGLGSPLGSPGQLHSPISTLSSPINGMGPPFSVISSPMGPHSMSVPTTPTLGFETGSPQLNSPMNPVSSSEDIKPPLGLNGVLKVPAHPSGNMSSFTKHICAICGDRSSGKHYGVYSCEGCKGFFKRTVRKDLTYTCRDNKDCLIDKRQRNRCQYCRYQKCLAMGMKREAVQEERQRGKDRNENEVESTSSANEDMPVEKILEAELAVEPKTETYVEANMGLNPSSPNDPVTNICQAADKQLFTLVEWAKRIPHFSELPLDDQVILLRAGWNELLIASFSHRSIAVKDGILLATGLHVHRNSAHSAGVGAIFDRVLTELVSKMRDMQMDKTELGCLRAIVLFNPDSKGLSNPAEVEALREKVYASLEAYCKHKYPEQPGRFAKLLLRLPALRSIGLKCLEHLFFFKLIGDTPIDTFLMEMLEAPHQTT
Settings: CV-1
Description: In vitro synergistic elevation of transcriptional activation in CV-1 cells expressing RAR and RXR with 3 nm TTNBP

- TEST_SMILES: "CC(/C=C/c1ccoc1-c1cc(C(C)C)cc(C(C)C)c1OCCCF)=C\\C(=O)O"
  Synergy: "2.5 fold"
- TEST_SMILES: "CC(/C=C/c1ccncc1-c1cc(C(C)C)cc(C(C)C)c1OCC(F)(F)F)=C\\C(=O)O"
  Synergy: "2.3 fold"
- TEST_SMILES: "CC(/C=C/c1ccccc1-c1cc(C(C)C)cc(C(C)C)c1OCCCF)=C\\C(=O)O"
  Synergy: "1.4 fold"
- TEST_SMILES: "CC(/C=C/c1ccccc1-c1cc(C(C)C)cc(C(C)C)c1OCC(F)F)=C\\C(=O)O"
  Synergy: "1.6 fold"
- TEST_SMILES: "CCc1cc(-c2ccsc2/C=C/C(C)=C/C(=O)O)c(OCC(F)F)c(C(C)(C)C)c1"
  Synergy: "3.1 fold"
- TEST_SMILES: "CC(/C=C/c1ccccc1-c1cc(C(C)(C)C)cc(C(C)(C)C)c1OCCCF)=C\\C(=O)O"
  Synergy: "1.5 fold"
- TEST_SMILES: "CC(/C=C/c1sccc1-c1cc(C(C)C)cc(C(C)C)c1OCCCF)=C\\C(=O)O"
  Synergy: "1.8 fold"

* * *

log10(Ki) values by entry
molecular target: Retinoic acid receptor RXR-alpha (Rattus norvegicus, UniProt Q05343); experiment: Binding affinity for Retinoic acid receptor RXR-alpha was determined by competing with 3[H]-9-cis-RA
ASSAY_READOUT: log10(Ki) (log10 of the value in nM)

- TEST_SMILES: "C/C(=C/C=C/C(C)=C/C(=O)O)c1cc(C(C)(C)C)cc(C(C)(C)C)c1OCC(F)F"
  MEASURED: 0.48
- TEST_SMILES: "CC(/C=C/C1=C(c2cc(C(C)C)cc(C(C)C)c2OCCCF)CCC1)=C\\C(=O)O"
  MEASURED: 0.28
- TEST_SMILES: "CCc1cc(-c2ccsc2/C=C/C(C)=C/C(=O)O)c(OCCCF)c(C(C)(C)C)c1"
  MEASURED: 1.00
- TEST_SMILES: "CC(/C=C/c1ccoc1-c1cc(C(C)C)cc(C(C)C)c1OCCCF)=C\\C(=O)O"
  MEASURED: 0.79
- TEST_SMILES: "CC(/C=C/C1=C(c2cc(C(C)C)cc(C(C)C)c2OCC(F)(F)F)CCC1)=C\\C(=O)O"
  MEASURED: 0.00
- TEST_SMILES: "CC(/C=C/c1sccc1-c1cc(C(C)C)cc(C(C)C)c1OCC(F)(F)F)=C\\C(=O)O"
  MEASURED: 0.94
- TEST_SMILES: "CCCOc1c(C2=C(/C=C/C(C)=C/C(=O)O)CCC2)cc(C(C)C)cc1C(C)C"
  MEASURED: 0.28
- TEST_SMILES: "CC(/C=C/C1=C(c2cc(C(C)C)cc(C(C)C)c2OCC(F)F)CCC1)=C\\C(=O)O"
  MEASURED: -0.05
- TEST_SMILES: "CC(/C=C/c1ccccc1-c1cc(C(C)C)cc(C(C)C)c1OCC(F)F)=C\\C(=O)O"
  MEASURED: 1.47
- TEST_SMILES: "CC(/C=C/c1sccc1-c1cc(C(C)C)cc(C(C)C)c1OCCCF)=C\\C(=O)O"
  MEASURED: 0.53
- TEST_SMILES: "CC(/C=C/c1sccc1-c1cc(C(C)(C)C)cc(C(C)(C)C)c1OCCC(F)F)=C\\C(=O)O"
  MEASURED: 0.28
- TEST_SMILES: "CC(/C=C/c1sccc1-c1cc(C(C)C)cc(C(C)C)c1OCC(F)F)=C\\C(=O)O"
  MEASURED: 0.34
- TEST_SMILES: "CC(/C=C/c1ccccc1-c1cc(C(C)C)cc(C(C)C)c1OCCCF)=C\\C(=O)O"
  MEASURED: 1.18
- TEST_SMILES: "CCc1cc(-c2ccsc2/C=C/C(C)=C/C(=O)O)c(OCC(F)F)c(C(C)(C)C)c1"
  MEASURED: 0.51
- TEST_SMILES: "CC(/C=C/c1ccccc1-c1cc(C(C)(C)C)cc(C(C)(C)C)c1OCCCF)=C\\C(=O)O"
  MEASURED: 1.32
- TEST_SMILES: "CC(/C=C/c1ccncc1-c1cc(C(C)C)cc(C(C)C)c1OCC(F)(F)F)=C\\C(=O)O"
  MEASURED: 1.68
